Target: T1, human 5T4 oncofoetal antigen (human, UniProt Q13641 32-420)
T1 construct: whole, on cells; also called hu 5T4; human 5T4 antigen
T1 sequence (looked up): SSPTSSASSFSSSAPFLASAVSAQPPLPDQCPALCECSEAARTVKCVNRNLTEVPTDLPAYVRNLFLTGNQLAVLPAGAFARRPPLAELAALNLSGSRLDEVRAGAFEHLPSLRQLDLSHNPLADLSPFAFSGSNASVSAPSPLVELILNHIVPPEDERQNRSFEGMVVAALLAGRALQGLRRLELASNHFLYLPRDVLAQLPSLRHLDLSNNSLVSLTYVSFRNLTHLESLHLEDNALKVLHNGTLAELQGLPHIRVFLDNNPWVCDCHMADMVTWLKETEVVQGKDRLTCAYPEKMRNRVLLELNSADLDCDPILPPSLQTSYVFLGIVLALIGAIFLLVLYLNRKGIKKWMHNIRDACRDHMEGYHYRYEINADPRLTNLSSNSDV
Experiment: flow cytometry, CHOZN cells expressing hu 5T4
quantity: EC50 (µg/mL)
Answer format: numeric, µg/mL implied, no suffix.

Below are worked cases with known answers.
binder="chimeric anti-5T4 monoclonal antibody 789 (antibody, human IgG1, V domains shown, also called clone 789) VH: QSVEESGGRLVTPGTPLTLTCTASGFSLSSYWMSWVRQAPGKGLEWIGIIAGRGSTYYASWAKGRCTISKTSTTVDLKITSPTTEDTAAYFCARVSSIYYTFNLWGQGTLVTVSS VL: AQVLTQTPSSVSAAVGGTVTINCQSSQSVYSNNELSWYQQKPGQPPKLLIYYASTLASGVPSRFKGSGSGTQFTLTISGVQSDDAATYYCQGSYYSGSGWYYAFGGGTEVVVK" unit_abbrev=µg/mL recorded_value=0.27
binder="chimeric anti-5T4 monoclonal antibody 828 (antibody, human IgG1, V domains shown) VH: QSVEESGGRLVTPGTPLTLTCTVSEIDLSTYAMSWVRQAPGKGLEWIGIISAGGSAYYASWAKGRFTISRTSTTVDLKMTSLTTEDTATYFCARGAAYAGYTYGFSFFDIWGPGTLVTVSL VL: DIVMTQTPSSVSAAVGGTVTINCQASQNIYSNLAWYQQKPGQRPKLLIYGASNLESGVPSRFKGSGSGTEYTLTISDLESDDAATYYCQSIDYGNNYLGSFGGGTEVVVK" unit_abbrev=µg/mL recorded_value=0.19

I have this binder here, chimeric anti-5T4 monoclonal antibody 825 (antibody, human IgG1, V domains shown, also called clone 825) VH: QSVEESGGRLVTPGTPLTLTCTVSGIDLSSYGMGWVRQAPGKGLEYIGIISRNSVTYYATWAKGRFTISKTSTTVDLKMTSPTTEDTATYFCARRATYSGALGYFDIWGPGTLVTVSF VL: GYDMTQTPASVSAAVGGTVTINCQASENIYSTLAWYQQKPGQPPKVLIYDAFDLASGVPSRFKGSGSGTEYTLTISGVQSDDAATYYCQQGYSGTNVDNAFGGGTEVVVK , and I need its recorded EC50.
0.13

Which EC50 is reported for this binder? chimeric anti-5T4 monoclonal antibody 834 (antibody, human IgG1, V domains shown) VH: QSVEESGGRLVTPGTPLTLTCTVSGFSLSTYSMSWVRQAPGKGLEWIGVISRGGSAYYASWAKGRFTISKTSTTVDLKVTSPTTEDTATYFCARGAISSGYYVYDGMDLWGPGTLVTVSS VL: DIVMTQTPGSVEAAVGGTVTIKCQASESISSYLAWYQQKPGQPPKFLIYSASTLASGVPSRFKGSGSGTEFTLTISDLESADAATYYCQCTDYGSDYMGAFGGGTGVVVK
0.19

Form field: reported EC50 of chimeric anti-5T4 monoclonal antibody 868 (antibody, human IgG1, V domains shown) VH: QSVEESGGRLVTPGTPLTLTCTASGFSLSDYTMGWVRQAPGKGLEWIGIINGYGSTYYANWAKGRFAISKTSTTVDLKITSPATEDTATYFCARGDTGRTYDMHFNLWGQGTLVTVSS VL: AYDMTQTPASVSAAVGGTVTIKCQASESIRSWLAWYQQKPGQPPKLLIYSASTLASGVSSRFKGSGSGTQFTLTIGDLESADAATYYCQQGYTSSNLDNAFGGGTEVLVK
0.22
